assay: Average area under curve for the compound at 1 mg/kg dose after intravenous administration to rat; conditions: in vivo
Measured Metric: AUC (ng·h/mL)

Example results:
CCCC[C@H](N[C@@H](Cc1ccccc1)C(=O)N1CCC(OCOC)CC1)C(=O)N[C@@H](CC1CCCCC1)[C@@H](O)C[C@H](C(=O)NCCN1CCOCC1)C(C)C | 242
CCCC[C@H](N[C@@H](Cc1ccccc1)C(=O)N1CCC(OCOC)CC1)C(=O)N[C@@H](CC1CCCCC1)[C@@H](O)C[C@H](C(=O)NCC(C)(C)N1CCOCC1)C(C)C | 215
CCCC[C@H](N[C@@H](Cc1ccccc1)C(=O)N1CCC(OCOC)CC1)C(=O)N[C@@H](CC1CCCCC1)[C@@H](O)C[C@H](C(=O)NCc1ccccn1)C(C)C | 3130
CCCC[C@H](N[C@@H](Cc1ccccc1)C(=O)N1CCC(OCOC)CC1)C(=O)N[C@@H](CC1CCCCC1)[C@@H](O)C[C@H](C(=O)NCC(C)(C)NCCO)C(C)C | 477
CCCC[C@H](N[C@@H](Cc1ccccc1)C(=O)N1CCC(OCOC)CC1)C(=O)N[C@@H](CC1CCCCC1)[C@@H](O)C[C@H](C(=O)NCCC1CCCCC1)C(C)C | 82

[I] CCCC[C@H](N[C@@H](Cc1ccccc1)C(=O)N1CCC(OCOC)CC1)C(=O)N[C@@H](CC1CCCCC1)[C@@H](O)C[C@H](C(=O)NCCNc1n[nH]c(N)n1)C(C)C
[II] CCCC[C@H](N[C@@H](Cc1ccccc1)C(=O)N1CCC(OCOC)CC1)C(=O)N[C@@H](CC1CCCCC1)[C@@H](O)C[C@H](C(=O)NCc1ccncc1)C(C)C
From the recorded data, which exceeds the other in AUC: I or II ? Selection: enter the item's label.
II
(II: 653 ng·h/mL, I: 318 ng·h/mL)

====

assay: Average area under curve for the compound at 10 mg/kg dose after intraduodenal administration to rat; conditions: in vivo
Measured Metric: AUC (ng·h/mL)

Solved entries:
CCCC[C@H](N[C@@H](Cc1ccccc1)C(=O)N1CCC(OCOC)CC1)C(=O)N[C@@H](CC1CCCCC1)[C@@H](O)C[C@H](C(=O)NCc1cccnc1)C(C)C | 3670
CCCC[C@H](N[C@@H](Cc1ccccc1)C(=O)N1CCC(OCOC)CC1)C(=O)N[C@@H](CC1CCCCC1)[C@@H](O)C[C@H](C(=O)NCCN1CCOCC1)C(C)C | 1220
CCCC[C@H](N[C@@H](Cc1ccccc1)C(=O)N1CCC(OCOC)CC1)C(=O)N[C@@H](CC1CCCCC1)[C@@H](O)C[C@H](C(=O)NCc1ccccc1)C(C)C | 1100
CCCC[C@H](N[C@@H](Cc1ccccc1)C(=O)N1CCC(OCOC)CC1)C(=O)N[C@@H](CC1CCCCC1)[C@@H](O)C[C@H](C(=O)NCCCN1CCOCC1)C(C)C | 235

[I] CCCC[C@H](N[C@@H](Cc1ccccc1)C(=O)N1CCC(OCOC)CC1)C(=O)N[C@@H](CC1CCCCC1)[C@@H](O)C[C@H](C(=O)NCCN1CCCCC1)C(C)C
[II] CCCC[C@H](N[C@@H](Cc1ccccc1)C(=O)N1CCC(OCOC)CC1)C(=O)N[C@@H](CC1CCCCC1)[C@@H](O)C[C@H](C(=O)NCCC[N+]1([O-])CCOCC1)C(C)C
Which of these two has the smaller recorded AUC: I or II ? # answer = label of selected item
II
